Measured pKd, listed per entry for reference.
- subject_of_test: T1, PUF4 RNA-binding domain (Saccharomyces cerevisiae, UniProt P25339 537-888)
- T1 sequence: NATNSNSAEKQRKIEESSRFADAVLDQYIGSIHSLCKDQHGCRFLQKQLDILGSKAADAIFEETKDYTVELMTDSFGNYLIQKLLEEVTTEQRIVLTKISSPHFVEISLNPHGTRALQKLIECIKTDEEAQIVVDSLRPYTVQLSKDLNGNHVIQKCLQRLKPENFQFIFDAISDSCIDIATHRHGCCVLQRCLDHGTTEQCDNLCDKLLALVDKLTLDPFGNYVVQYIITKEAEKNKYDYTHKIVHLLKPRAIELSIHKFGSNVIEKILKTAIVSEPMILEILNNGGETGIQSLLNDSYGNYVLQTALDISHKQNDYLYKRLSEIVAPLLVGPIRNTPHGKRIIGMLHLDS
- procedure_text: Mg; RNA-MaP; 20 mM Na-HEPES pH 7.4, 30 mM KOAc, 0.75 mM MgCl2, 0.1% Tween-20, 5% glycerol, 0.1 mg/mL BSA, 2 mM DTT; 25 C; 0.0125-409.6 nM protein
- test_context: tags: N-His6-TEV cleaved; C-SNAP kept, Cy3B-labelled; label: tethered on chip by stalled RNA polymerase
pKd is defined as minus the log10 of a concentration measured in mol/L.

Look over these answered cases.
According to the records, this binder Id_ii_S2_P5E.4_K5.3_C5.2_[C-2G]_[T-1C]_H5.3_A5.1_F5.1_T5.2_[T11A] (ssRNA) RNA: UUUGAUUAAUAUGAUAUCGUUCUUUCUGCACACUUAUUAAAUUCUUUCUCGAUAUCAUAUUAAUCUUU displays pKd of 6.26

According to the records, this binder Ie_S2_P5E.1_K5.1_C5.1_H5.1_[+4CTCTC]_A5.1_F5.1_T5.1 (ssRNA) RNA: UUUGAUUAAUAUGAUAUCGUUCUUUCUUGUACUCUCUUAUUAUUCUUUCUCGAUAUCAUAUUAAUCUUU displays pKd of 8.10

According to the records, this binder Id_ii_S2_P4E.3_K4.2_C4.2_[C-2T]_H4.2_A4.1_F4.1_T4.2_[G10T]_[T11C] (ssRNA) RNA: UUUGAUUAAUAUGAUAUCGUUCUUUCUUUUAUAUAUUAUCUUCUUUCUCGAUAUCAUAUUAAUCUUU displays pKd of 8.13

According to the records, this binder Id_iii_S2_P3E.6_K3.2_C3.3_[T-3A]_H3.2_A3.1_F3.1_T3.2 (ssRNA) RNA: UUUGAUUAAUAUGAUAUCGUUCUUUCUACUUAUAUAUAUAUUCUUUCUCGAUAUCAUAUUAAUCUUU displays pKd of 7.04

According to the records, this binder UCUCUUUGUGUAUAAUCUCUU (ssRNA) [Ib_S1_P4E.1_K4.1_C4.1_H4.1_[A4G]_A4.1_F4.1_[T8A]_T4.1] displays pKd of 7.94

More entries:
According to the records, this binder UCUCUUAUACACUUAUUACGUCUCUU (ssRNA) [Id_ii_S1_P5E.4_K5.3_C5.2_[C-2A]_H5.3_A5.1_F5.1_T5.2_[T11C]_[A12G]] displays pKd of 6.04

According to the records, this binder UCUCUUCCUGUAUUAUUAAAUCUCUU (ssRNA) [Id_ii_S1_P5E.2_K5.1_C5.2_[T-1C]_H5.1_A5.1_F5.1_T5.2_[T11A]] displays pKd of 7.73

According to the records, this binder UCUCUUCCUAUAUUAUUACGUCUCUU (ssRNA) [Id_ii_S1_P5E.3_K5.2_C5.2_[T-1C]_H5.2_A5.1_F5.1_T5.2_[T11C]_[A12G]] displays pKd of 6.13

According to the records, this binder Ic_S4_P4E.1_K4.1_C4.1_H4.1_A4.1_[A6C]_[T7A]_F4.1_[A9G]_T4.1 (ssRNA) RNA: UUUGACAACUGAUCGUUCUUUCUUGUAUCAUGUUCUUUCUCGAUCAGUUGUCUUU displays pKd of 8.00

According to the records, this binder Ia_S4_P5E.1_K5.1_C5.1_H5.1_A5.1_[A7C]_F5.1_T5.1 (ssRNA) RNA: UUUGACAACUGAUCGUUCUUUCUUGUAUUCUUAUUCUUUCUCGAUCAGUUGUCUUU displays pKd of 8.26
